// inhibition lookup, one value per entry
Molecular target: Glucose transporter (Leishmania mexicana) (UniProt O61059)
Assay: ST_JUDE_LEISH: Cytotoxicity at 2uM final concentration against transgenic Leishmania Mexicana promastigotes LmGT2 that are glucose transport deficient and complemented with the L. Mexicana glucose transporter 2. Activity is measured by DNA content using SYBR green in vitro
Type: functional
Quick reminder: number only, in %, skip the unit.

The following molecules have reported results that may help.
{"Molecule": "N#Cc1cc([N+](=O)[O-])ccc1-n1nc(-c2cccc(Cl)c2)n(Cc2ccco2)c1=S", "Unit Text": "%", "inhibition": -3.52}
{"Molecule": "O=C(Nc1ccc(-c2cccc(-c3nc4cc(C(F)(F)F)ccc4[nH]3)c2)cc1)c1ccoc1", "Unit Text": "%", "inhibition": 3.22}
{"Molecule": "Nc1nccc2ccc(-c3ccnc(NCc4cccnc4)n3)cc12", "Unit Text": "%", "inhibition": 11.2}
{"Molecule": "CN(C)S(=O)(=O)c1ccc(N2C(=O)C3C(C2=O)C2(c4ccccc4)C(=O)C3(c3ccccc3)C(c3ccccc3)=C2c2ccccc2)cc1 (stereo not given)", "Unit Text": "%", "inhibition": -2.57}

Q: What value of measured inhibition is listed for N#Cc1ccc(CN2CCC(Oc3ccc(NC(=O)c4cccs4)cc3)C2)cc1 (stereo not given) ?
A: 0.05

Q: What value of measured inhibition is listed for CCCCCCn1c(Sc2ccc(C#N)c([N+](=O)[O-])c2)nnc1-c1cc(OC)cc(OC)c1 ?
A: 4.53

Q: What value of measured inhibition is listed for O=C(/C=C/c1ccc2ccccc2c1)NCCCCCN1CCC(c2c[nH]c3ccccc23)CC1 ?
A: 0.03

Q: What value of measured inhibition is listed for COCCNCc1cccc(-c2ccccc2CN(C(=O)c2ccc3c(c2)OCO3)c2ccc(OC)cc2)c1 ?
A: 3.25

Q: What value of measured inhibition is listed for CCN(CC)C(=O)C1CCN(C(C(=O)N2CCN(CC(=O)N3CCCC3)CC2)c2cc3ccccc3o2)CC1 (stereo not given) ?
A: 1.61

Q: What value of measured inhibition is listed for COc1ccc(NC(=O)NC2CCN(c3ccnc4cc(Cl)ccc34)C2)cc1 (stereo not given) ?
A: 1.86

Q: What value of measured inhibition is listed for Oc1ccc(Cl)cc1-c1cc(C(F)(F)F)nc(-c2ccccc2)n1 ?
A: 8.28

Q: What value of measured inhibition is listed for CCCCOc1c(CNCCCCCCNCc2ccc3ccccc3c2OCCCC)ccc2ccccc12 ?
A: 85.2

Q: What value of measured inhibition is listed for COc1ccc(NC(=O)c2ccc(Br)c(C)c2)cc1N1CCN(Cc2ccccc2)CC1 ?
A: -0.04

Q: What value of measured inhibition is listed for CCC(=O)Nc1ccc(Nc2nc(C)cc(N3CCCC3)n2)cc1 ?
A: 2.39

Q: What value of measured inhibition is listed for CCCCN1CCN(CCCCNc2c3ccccc3nc3ccccc23)CC1 ?
A: 22

Q: What value of measured inhibition is listed for CN(C)c1ccc(C=CC(=O)NC(=O)c2ccccc2O)cc1 ?
A: 1.56

Q: What value of measured inhibition is listed for Fc1ccccc1C=NNc1ccnc2cc(Cl)ccc12 ?
A: 6.07

Q: What value of measured inhibition is listed for Cc1ccc(C(=O)N2CCc3cc4nccc(N5CCN6CCC[C@H]6C5)c4cc32)cc1 ?
A: 1.55

Q: What value of measured inhibition is listed for CC(=O)N(C)C1CCN(Cc2cccc(-c3ccc(-c4nc5cc(C(F)(F)F)ccc5[nH]4)cc3)c2)C1 (stereo not given) ?
A: 3.1

Q: What value of measured inhibition is listed for O=S(=O)(NCCN1CCCC1)c1ccc(-c2ccc(CNCc3ccsc3)cc2)cc1F ?
A: -0.2
